measurement-notes: The drug is tested on Z-026 corresponding to metagenome with ENA study accession number: PRJEB37062 and ENA sample accession number: ERS12561825 for biotransformation under anaerobic condition. The drug concentrations were measured over 9 timepoints collected between 0 and 24 hours of incubation by liquid-chromatography-coupled mass spectrometry (LC–MS); further: call rule not given here
condition-details: 2 µM
assay-endpoint: Bacterial Biotransformation

Some compounds with known Bacterial Biotransformation results, for comparison:
[[record]]
compound = "Cc1cc(C)cc(OCC2CNC(=O)O2)c1 (stereo not given)"
obs_value = "Compound metabolized"

[[record]]
compound = "CC(C)c1nc(N(C)S(C)(=O)=O)nc(-c2ccc(F)cc2)c1/C=C/[C@@H](O)C[C@@H](O)CC(=O)[O-].CC(C)c1nc(N(C)S(C)(=O)=O)nc(-c2ccc(F)cc2)c1/C=C/[C@@H](O)C[C@@H](O)CC(=O)[O-].[Ca+2]"
obs_value = "Compound NOT metabolized"

[[record]]
compound = "CCOC(=O)[C@H](CCc1ccccc1)N[C@@H](C)C(=O)N1CCC[C@H]1C(=O)O.O=C(O)/C=C\\C(=O)O [ENALAPRIL MALEATE]"
obs_value = "Compound NOT metabolized"

[[record]]
compound = "O=C(O)c1cc(/N=N/c2ccc(S(=O)(=O)Nc3ccccn3)cc2)ccc1O"
obs_value = "Compound metabolized"


Data request: Give recorded Bacterial Biotransformation. "COc1ccc(Cc2nccc3cc(OC)c(OC)cc23)cc1OC"
Data returned: Compound NOT metabolized
